Assign inhibition at 0.3 µM to each entry below.
target: human SphK2 (Homo sapiens, UniProt Q9NRA0); assay: Sphingosine kinase assay, recombinant human SphK2, γ-[32P]ATP; details: read-out: SphK2 inhibition (decrease of activity)
Sequence (Q9NRA0 whole entry): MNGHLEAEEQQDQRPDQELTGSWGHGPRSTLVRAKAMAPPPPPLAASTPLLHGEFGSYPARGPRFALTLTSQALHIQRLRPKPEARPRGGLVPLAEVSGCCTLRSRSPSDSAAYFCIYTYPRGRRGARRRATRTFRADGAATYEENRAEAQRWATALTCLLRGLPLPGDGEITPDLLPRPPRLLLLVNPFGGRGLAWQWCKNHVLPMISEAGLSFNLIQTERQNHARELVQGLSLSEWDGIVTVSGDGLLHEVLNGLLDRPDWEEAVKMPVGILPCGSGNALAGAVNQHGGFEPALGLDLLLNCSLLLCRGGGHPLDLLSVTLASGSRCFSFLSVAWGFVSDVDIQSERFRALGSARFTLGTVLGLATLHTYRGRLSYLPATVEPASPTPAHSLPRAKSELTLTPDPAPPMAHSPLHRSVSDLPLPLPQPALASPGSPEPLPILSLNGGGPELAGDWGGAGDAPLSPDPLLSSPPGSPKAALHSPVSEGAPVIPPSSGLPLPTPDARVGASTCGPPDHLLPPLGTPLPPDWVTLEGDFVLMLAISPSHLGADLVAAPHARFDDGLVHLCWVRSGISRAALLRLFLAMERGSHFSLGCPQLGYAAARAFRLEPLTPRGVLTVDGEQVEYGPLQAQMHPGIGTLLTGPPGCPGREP

Query block: // fetch human SphK2 (Homo sapiens, UniProt Q9NRA0) inhibition at 0.3 µM for Cc1ccc(-c2csc(Nc3ccc(-c4noc(C[C@@H]5CCCN5C(=N)N)n4)cc3)n2)cc1 [Compound 20n]
Result block: < 30%

Query block: Record N=C(N)N1CCC[C@H]1Cc1nc(-c2ccc(Oc3nc(-c4ccc(C(F)(F)F)cc4)cs3)cc2)no1 [Compound 31] : what is its inhibition at 0.3 µM with human SphK2 (Homo sapiens, UniProt Q9NRA0)?
Result block: ~45%

Query block: API: value(readout= inhibition at 0.3 µM, system= human SphK2 (Homo sapiens, UniProt Q9NRA0), query= CCOc1ccc(-c2csc(Nc3ccc(-c4noc(C[C@@H]5CCCN5C(=N)N)n4)cc3)n2)cc1 [Compound 20p] )
Result block: < 30%

Query block: Recorded inhibition at 0.3 µM for COc1ccc(-c2csc(Nc3ccc(-c4noc(C[C@@H]5CCCN5C(=N)N)n4)cc3)n2)cc1 [Compound 20o] with human SphK2 (Homo sapiens, UniProt Q9NRA0), please?
Result block: < 30%

Source of measurements: paper PMC6047346
